Target: human SGLT1 (Homo sapiens)
Sequence (P13866 whole entry): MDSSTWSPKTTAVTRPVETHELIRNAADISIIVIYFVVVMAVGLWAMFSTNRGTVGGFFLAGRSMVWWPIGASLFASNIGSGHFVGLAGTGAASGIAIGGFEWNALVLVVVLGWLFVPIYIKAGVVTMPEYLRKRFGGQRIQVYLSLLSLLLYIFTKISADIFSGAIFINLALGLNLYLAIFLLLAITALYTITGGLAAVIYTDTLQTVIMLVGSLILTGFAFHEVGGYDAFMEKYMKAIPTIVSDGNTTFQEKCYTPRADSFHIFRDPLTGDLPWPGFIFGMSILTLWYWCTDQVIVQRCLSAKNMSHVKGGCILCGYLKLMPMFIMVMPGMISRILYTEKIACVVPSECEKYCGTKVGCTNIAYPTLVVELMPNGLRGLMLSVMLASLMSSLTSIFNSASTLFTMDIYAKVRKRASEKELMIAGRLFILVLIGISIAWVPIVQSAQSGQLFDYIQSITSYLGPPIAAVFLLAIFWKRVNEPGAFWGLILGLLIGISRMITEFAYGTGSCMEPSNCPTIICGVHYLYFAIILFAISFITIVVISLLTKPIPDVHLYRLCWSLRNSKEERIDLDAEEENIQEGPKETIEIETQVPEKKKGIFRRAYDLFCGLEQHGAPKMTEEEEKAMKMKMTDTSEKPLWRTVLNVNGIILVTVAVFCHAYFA
Assay: SGLT1 assay: Na-dependent 14C-AMG uptake in CHO-K1 cells stably expressing human SGLT1
Conditions: 500 μM AMG, 2 hours at 37° C.
pIC50: −log10 of the molar value.
MEASUREMENT_KIND: pIC50

>  <COMPOUND>
CCOc1cc(C)c(Cc2ccc3c(c2)CC3)cc1[C@@H]1O[C@H](CO)[C@@H](F)[C@H](O)[C@H]1O

>  <pIC50>
7.31

$$$$
>  <COMPOUND>
CCOc1cc(CC)c(Cc2ccc3c(c2)CC3)cc1[C@@H]1O[C@H](CO)[C@@H](O)[C@H](O)[C@H]1O

>  <pIC50>
7.49

$$$$
>  <COMPOUND>
CCOc1cc(C)c(Cc2ccc3c(c2)CC3)cc1[C@@H]1O[C@H](CO)[C@@H](O)[C@H](O)[C@H]1O

>  <pIC50>
7.08

$$$$

P: [2H]C1([2H])Cc2ccc(Cc3cc([C@@H]4O[C@H](CO)[C@@H](O)[C@H](O)[C@H]4O)c(OC)cc3OC)cc21 (single isomer, unassigned)
Q: CCc1cc(O)c([C@@H]2O[C@H](CO)[C@@H](F)[C@H](O)[C@H]2O)cc1Cc1ccc2c(c1)CC2
R: [2H]C1([2H])Cc2ccc(Cc3cc([C@@H]4O[C@H](CO)[C@@H](O)[C@H](O)[C@H]4O)c(F)cc3C3CC3)cc21
[ask] Sort by pIC50, descending. Sort and list the labels as requested.
[reply] Q, R, P
(Q: 9.00, R: 7.92, P: 7.39)
